Listed here: items and their measured TGI.
tested on: NCI-H23 lung; test: NCI tumour cell line growth inhibition, 48 h
testReadout: TGI

>>> result("COc1ccc2c(c1)CCc1cnn(C3OC(COC(C)=O)C(OC(C)=O)C(OC(C)=O)C3OC(C)=O)c1-2 (configuration not stated)")
"> 100 µM"
>>> result("O=C(N1CCOCC1)C1(c2ccccc2)CCNCC1")
"> 100 µM"
>>> result("CCc1ccc(CCC(=O)O)nc1")
"> 100 µM"
>>> result("CC1(C)CC(=O)C(C(c2cccc(O)c2O)C2C(=O)CC(C)(C)CC2=O)C(=O)C1")
"> 100 µM"
>>> result("O=C(CC(=O)N(C(=O)c1ccccc1)c1ccc(Cl)cc1)N/N=C\\c1ccccc1O")
"> 100 µM"
>>> result("COC(=O)CSc1ccccc1")
"> 100 µM"
>>> result("Cc1c(/C=N/NC(=O)c2ccccc2)c(=O)n(-c2ccccc2)n1C")
"> 100 µM"
>>> result("O=C(O)CN1CCNCCN(CC(=O)O)CCNCC1")
"> 100 µM"
>>> result("Cc1ccc(C2(C)NC(=S)N(NC(N)=S)C2=S)cc1 (configuration not stated)")
"> 100 µM"
>>> result("Fc1ccc(-c2ncn(C3CCNCC3)c2-c2ccnc(Oc3ccccc3)n2)cc1")
"> 25 µM"
>>> result("CC1CC(=O)N2CCCNC2=C1C#N (configuration not stated)")
"> 100 µM"
>>> result("O=C(/C=C/C=C/c1ccccc1)c1ccc(Nc2nc(Nc3ccccc3)nc(Nc3ccccc3)n2)cc1")
"> 100 µM"

###

Overview of recorded TGI for various compounds
test system: NCI-H460 lung; test: NCI tumour cell line growth inhibition, 48 h
testReadout: TGI

>>> result("O=c1c2c(sc3ccccc13)NCN(CCc1ccccc1)C2")
"> 100 µM"
>>> result("CCOC(=O)c1c[nH]c2c(OCc3ccccc3)c3ccccc3c(O)c2c1=O")
"> 47.5 µM"
>>> result("Nc1ccc2cc(S(=O)(=O)O)cc(O)c2c1N=Nc1ccc(NC(=O)Nc2ccc(N=Nc3c(N)ccc4cc(S(=O)(=O)O)cc(O)c34)c(S(=O)(=O)O)c2)cc1S(=O)(=O)O")
"> 100 µM"
>>> result("CNc1nnnn1C1OC(CO)C(O)C1O (configuration not stated)")
"> 100 µM"
>>> result("COc1c(OC(C)=O)c(OC(C)=O)cc2c1-c1ccc(OC)c(=O)cc1C(NC(C)=O)CC2 (configuration not stated)")
"13.1 µM"
>>> result("C[As](C)Sc1ccnc(S[As](C)C)n1")
"> 58.6 µM"
>>> result("C/C(=N\\Nc1nc2ccccc2[nH]1)c1ccncn1")
"> 100 µM"
>>> result("Nc1ncnc2c1c(-c1cccc(OCc3ccccc3)c1)cn2C1CC(CN2CCCC2)C1 (configuration not stated)")
"7.65 µM"
>>> result("COC(=O)C(/C(=N/N)C(=O)Nc1ccc(C)c(C)c1)c1nc2ccc(Cl)cc2[nH]c1=O (configuration not stated)")
"> 100 µM"
>>> result("CN(C)C(=S)N/N=C\\C(=N/NC(=S)N(C)C)c1ccccc1")
"> 100 µM"
>>> result("COC(=O)C1=C(C(=O)OC)SC(=C2c3ccsc3-c3sccc32)S1")
"> 100 µM"
>>> result("CN(C)C1(C(=O)O)CC1")
"> 100 µM"
>>> result("C[N+](C)(C)CCC(=O)N1C/C(=C\\c2ccccc2)C(=O)/C(=C/c2ccccc2)C1")
"22.4 µM"
>>> result("CC(N)C(=O)c1ccc(O)cc1 (configuration not stated)")
"> 100 µM"
>>> result("Cn1c(=O)oc2cc(C(=S)N3CCC(Cc4ccccc4)CC3)ccc21")
"> 100 µM"
>>> result("CCOC(=O)C1=C(N)Oc2c(sc3c(C)cccc23)C1c1ccc(Cl)cc1 (configuration not stated)")
"11.6 µM"
>>> result("CN(C)CCCNC(=O)c1cc(NC(=O)CCNC(=O)c2ccc3c(c2)C(=O)c2ccccc2C3=O)cn1C")
"> 100 µM"

###

tested on: HCT-116 colon; assay: NCI tumour cell line growth inhibition, 48 h
Below is a list of entries, each paired with its recorded TGI value.
testReadout: TGI

>>> result("Cc1c(/C=N/NC(=O)c2ccccc2)c(=O)n(-c2ccccc2)n1C")
"> 100 µM"
>>> result("O=C1ON(Cc2ccccc2)C(c2ccccc2)N1c1ccccc1 (stereo unspecified)")
"> 100 µM"
>>> result("O=C(O)CN1CCNCCN(CC(=O)O)CCNCC1")
"> 100 µM"
>>> result("COc1ccc(S(=O)(=O)N2CCN(C(=O)OCc3ccccc3)CC2C(=O)NO)cc1 (stereo unspecified)")
"> 25 µM"
>>> result("CS(=O)(=O)N1CCN(Cc2cc3nc(-c4cccc5[nH]ncc45)nc(N4CCOCC4)c3s2)CC1")
"> 100 µM"
>>> result("CN(C)C1(C(=O)O)CC1")
"> 100 µM"

###

test system: KM12 colon; test: NCI tumour cell line growth inhibition, 48 h
testReadout: TGI

>>> result("O=C1Nc2cc(Cl)ccc2Oc2cc(Oc3ccccc3)ccc21")
"14 µM"
>>> result("CSC(=S)N/N=C/c1ccccc1")
"> 100 µM"
>>> result("CC1CC(=O)N2CCCNC2=C1C#N (centres undefined)")
"> 100 µM"
>>> result("COc1ccc2c(c1)CCc1cnn(C3OC(COC(C)=O)C(OC(C)=O)C(OC(C)=O)C3OC(C)=O)c1-2 (centres undefined)")
"> 100 µM"

###

test system: SNB-19 CNS; test: NCI tumour cell line growth inhibition, 48 h
Listing: TGI of selected compounds
testReadout: TGI

>>> result("O=C(/C=C/C=C/c1ccccc1)c1ccc(Nc2nc(Nc3ccccc3)nc(Nc3ccccc3)n2)cc1")
"> 100 µM"
>>> result("O=C(N/N=C/c1coc2ccc(Cl)cc2c1=O)c1ccncc1")
"> 100 µM"
>>> result("CCOC(=O)N1CC2(C(=O)OC)C=CC1C(C(=O)OC)C2 (stereo not drawn)")
"> 100 µM"

###

test system: HOP-92 NSCLC; assay: NCI tumour cell line growth inhibition, 48 h
testReadout: TGI

>>> result("O=C(Nc1ccc(Cl)c(Cl)c1)C(=O)Nn1c(=S)[nH]c2ccccc2c1=O")
"> 100 µM"
>>> result("Cc1ccc(-c2c(C#N)c(-c3ccc([N+](=O)[O-])cc3)c(C#N)c(=O)n2NS(=O)(=O)c2ccc(C)cc2)cc1")
"> 100 µM"
>>> result("C[C@@H](C(=O)O)c1ccc(-c2ccccc2)c(F)c1")
"> 100 µM"
>>> result("O=C1OC(c2ccccc2)C2CC3CC4(CCC3CN12)OCCO4 (centres undefined)")
"> 100 µM"
>>> result("NC(=O)NC(CC(=O)O)C(=O)O (centres undefined)")
"> 100 µM"
>>> result("C[C@]12CCC3[C@@H](C[C@H]4OC(=O)[C@@]35CCC(=O)C=C45)C1CCC2=O (some centres undefined)")
"> 100 µM"
>>> result("NC(=O)Cc1ncn(-c2ccccc2)n1")
"> 100 µM"
>>> result("CC(=O)Nc1ccc2c3c(cc(O)c2c1)N(C(=O)CCCC(=O)Nc1ccc2c4c(cc(O)c2c1)N(C(=O)OC(C)(C)C)CC4CCl)CC3CCl (centres undefined)")
"> 15.1 µM"
>>> result("CN(C)c1ccc(/C=C(\\C#N)c2cc3ccccc3n2C)cc1")
"> 23 µM"
>>> result("O=c1cc2n(c(=O)[nH]1)C1OC(C(O)C1O)[C@H]2CCO (some centres undefined)")
"> 100 µM"
>>> result("CN(C)CCCc1cccnc1")
"> 100 µM"
>>> result("C/C(=N\\Nc1ccc2ccccc2n1)c1ccccc1O")
"> 100 µM"
>>> result("COc1cc(COC(=O)N2CCCCC2C(=O)O)c([N+](=O)[O-])cc1OC (centres undefined)")
"> 100 µM"
>>> result("O=c1[nH]c(=O)n(C2CC(O)C(COP(=O)(O)OC3CC(n4cc(F)c(=O)[nH]c4=O)OC3COP(=O)(O)OC3CC(n4cc(F)c(=O)[nH]c4=O)OC3COP(=O)(O)OC3CC(n4cc(F)c(=O)[nH]c4=O)OC3COP(=O)(O)OC3CC(n4cc(F)c(=O)[nH]c4=O)OC3COP(=O)(O)OC3CC(n4cc(F)c(=O)[nH]c4=O)OC3COP(=O)(O)OC3CC(n4cc(F)c(=O)[nH]c4=O)OC3COP(=O)(O)OC3CC(n4cc(F)c(=O)[nH]c4=O)OC3COP(=O)(O)OC3CC(n4cc(F)c(=O)[nH]c4=O)OC3COP(=O)(O)OC3CC(n4cc(F)c(=O)[nH]c4=O)OC3CO)O2)cc1F (centres undefined)")
"> 50 µM"
>>> result("c1ccc(-c2nc3sccn3n2)cc1")
"> 100 µM"
>>> result("O=C(N/N=C/c1coc2ccc(Cl)cc2c1=O)c1ccncc1")
"> 100 µM"
>>> result("O=C(O)CNC(=O)c1ccccc1O")
"> 100 µM"
>>> result("O=c1oc2c3ccc4ccccc4c3n(CCN3CCOCC3)c2c2ccccc12")
"> 100 µM"
>>> result("COc1ccc(CN2C(=O)C(Cc3cc(OC)c(OC)c(C)c3OC)N(C(=O)OC(C)C)C(=O)/C2=C/c2cc(OC)c(OC)c(C)c2OC)cc1 (centres undefined)")
"> 100 µM"
